Test system: PC-3 PIP/flu tumor-bearing mice
Assay: Biodistribution study in PC-3 PIP/flu tumor-bearing mice
Type: in vivo, athymic nude Balb/c mice
Conditions: 4 h p.i., PC-3 PIP/flu tumor-bearing mice
# if measured Liver < 3 % IA/g: 1 (yes)  # else: 0 (no)

Solved cases below.
>  <molecule>
CC(C)Cc1ccc(C(C)C(=O)NCCCCC(NC(=O)CN2CCN(CC(=O)O)CCN(CC(=O)O)CCN(CC(=O)O)CC2)C(=O)NCC2CCC(C(=O)NC(Cc3ccc4ccccc4c3)C(=O)NCCCCC(NC(=O)NC(CCC(=O)O)C(=O)O)C(=O)O)CC2)cc1 (stereo not drawn) [^177Lu-Ibu-PSMA, metal not drawn]

>  <class_assignment>
1 (yes)

$$$$
>  <molecule>
CC(C)Cc1ccc(C(C)C(=O)NC(CC(=O)NCCCCC(NC(=O)CN2CCN(CC(=O)O)CCN(CC(=O)O)CCN(CC(=O)O)CC2)C(=O)NCC2CCC(C(=O)NC(Cc3ccc4ccccc4c3)C(=O)NCCCCC(NC(=O)NC(CCC(=O)O)C(=O)O)C(=O)O)CC2)C(=O)O)cc1 (stereo not drawn) [^177Lu-Ibu-Dβ-PSMA, metal not drawn]

>  <class_assignment>
0 (no)

$$$$

Please indicate whether the reported Liver of CC(C)Cc1ccc(C(C)C(=O)NCC[C@H](NC(=O)CN2CCN(CC(=O)O)CCN(CC(=O)O)CCN(CC(=O)O)CC2)C(=O)NCC2CCC(C(=O)N[C@@H](Cc3ccc4ccccc4c3)C(=O)NCCCC[C@H](NC(=O)N[C@@H](CCC(=O)O)C(=O)O)C(=O)O)CC2)cc1 (stereo partly drawn) [^177Lu-Ibu-sPSMA, metal not drawn] is strictly below 3 % IA/g.
0 (no)

Given CC(C)Cc1ccc(C(C)C(=O)NC(CC(N)=O)C(=O)NCCCCC(NC(=O)CN2CCN(CC(=O)O)CCN(CC(=O)O)CCN(CC(=O)O)CC2)C(=O)NCC2CCC(C(=O)NC(Cc3ccc4ccccc4c3)C(=O)NCCCCC(NC(=O)NC(CCC(=O)O)C(=O)O)C(=O)O)CC2)cc1 (stereo not drawn) [^177Lu-Ibu-N-PSMA, metal not drawn] , is recorded Liver strictly lower than 3 % IA/g?
1 (yes)

API: query returns whether the molecule falls strictly under 3 % IA/g in Liver. Query: CC(C)Cc1ccc(C(C)C(=O)NC(CCN)C(=O)NCCCCC(NC(=O)CN2CCN(CC(=O)O)CCN(CC(=O)O)CCN(CC(=O)O)CC2)C(=O)NCC2CCC(C(=O)NC(Cc3ccc4ccccc4c3)C(=O)NCCCCC(NC(=O)NC(CCC(=O)O)C(=O)O)C(=O)O)CC2)cc1 (stereo not drawn) [^177Lu-Ibu-DAB-PSMA, metal not drawn]
1 (yes)

Hello, I'm reviewing records and need to know if Liver of CC(C)Cc1ccc(C(C)C(=O)NC(CC(=O)O)C(=O)NCCCCC(NC(=O)CN2CCN(CC(=O)O)CCN(CC(=O)O)CCN(CC(=O)O)CC2)C(=O)NCC2CCC(C(=O)NC(Cc3ccc4ccccc4c3)C(=O)NCCCCC(NC(=O)NC(CCC(=O)O)C(=O)O)C(=O)O)CC2)cc1 (stereo not drawn) [^177Lu-Ibu-Dα-PSMA, metal not drawn] is below 3 % IA/g. Could you check?
1 (yes)
